assayed_system: ATAD2A (Homo sapiens, UniProt Q6PL18)
Sequence (Q6PL18 980-1092 limits assumed): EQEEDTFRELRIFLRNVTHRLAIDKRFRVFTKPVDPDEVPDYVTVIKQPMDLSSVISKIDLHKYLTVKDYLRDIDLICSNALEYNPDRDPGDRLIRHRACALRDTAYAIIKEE
method: BROMOscan ligand-binding assay
details: KD, ATAD2A
endpoint: Kd

Any idea what its Kd is? The compound is O=C(C=CN1CC2CC1CN2c1ccccn1)c1ccccc1O (stereo not shown)
> 100 µM

###

compounds and their reported activity at 1 µM
assayed_system: MYST1 (Homo sapiens, UniProt Q9H7Z6)
Sequence (Q9H7Z6 whole entry, species assumed): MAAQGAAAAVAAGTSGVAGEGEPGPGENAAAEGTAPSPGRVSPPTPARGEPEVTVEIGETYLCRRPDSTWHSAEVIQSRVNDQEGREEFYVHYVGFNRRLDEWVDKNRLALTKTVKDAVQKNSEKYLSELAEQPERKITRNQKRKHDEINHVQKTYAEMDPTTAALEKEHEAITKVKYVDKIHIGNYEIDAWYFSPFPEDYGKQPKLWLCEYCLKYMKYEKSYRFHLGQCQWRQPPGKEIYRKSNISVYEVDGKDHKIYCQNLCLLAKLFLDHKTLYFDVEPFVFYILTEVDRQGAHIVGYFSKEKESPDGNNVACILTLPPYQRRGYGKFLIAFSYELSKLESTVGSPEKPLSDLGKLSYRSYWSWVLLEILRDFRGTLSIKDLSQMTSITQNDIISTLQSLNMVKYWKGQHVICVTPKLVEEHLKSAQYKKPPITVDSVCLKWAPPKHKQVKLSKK
method: Histone acetyltransferase (HAT) activity assay;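 further: selectivity screen across a panel of histone acetyltransferases, with compounds tested at 1 and 10 µM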
Format: biochemical
details: 1µM; read-out: HATs Activity (%)
Please give a number only; it is taken to be in %.

Worked cases, activity at 1 µM given:
Please give the measured activity at 1 µM for this compound: CC(=O)c1cc(-c2cc(C(=O)NC3CC3)ccc2C)c2ncccn12 [TP-472]
100

I am curious: what activity at 1 µM value has been reported for CCC(=O)N1CCOc2c(cc(-c3ccc(OC)c(OC)c3)cc2OCC2CCCN(C)C2)C1 (stereo not drawn) [I-CBP112] ?
98

Can you share its activity at 1 µM? I mean this compound: Cc1c(NC(=O)c2cc(C(N)=O)nc3cc(F)ccc23)c(C(F)(F)F)nn1Cc1ccc(C#N)cc1 [BAY-876]
96

Please report the recorded activity at 1 µM for CN(C)CCCOc1ccc(-c2cc(NCCCn3cccn3)nc(S(C)(=O)=O)n2)cc1 [TP-238] .
99

// activity at 1 µM lookup, key: CN1C[C@H](Nc2cnn(C)c(=O)c2Br)C[C@H](c2ccccc2)C1 [GSK4027]
102

Please examine the following record next.
Which activity at 1 µM is listed for O=C(C=CN1CC2CC1CN2c1ccccn1)c1ccccc1O (stereo not drawn) [PFI-3] ?
99

###

assayed_system: EED (Homo sapiens)
Sequence (O75530 whole entry, species assumed, the tested form may be a part): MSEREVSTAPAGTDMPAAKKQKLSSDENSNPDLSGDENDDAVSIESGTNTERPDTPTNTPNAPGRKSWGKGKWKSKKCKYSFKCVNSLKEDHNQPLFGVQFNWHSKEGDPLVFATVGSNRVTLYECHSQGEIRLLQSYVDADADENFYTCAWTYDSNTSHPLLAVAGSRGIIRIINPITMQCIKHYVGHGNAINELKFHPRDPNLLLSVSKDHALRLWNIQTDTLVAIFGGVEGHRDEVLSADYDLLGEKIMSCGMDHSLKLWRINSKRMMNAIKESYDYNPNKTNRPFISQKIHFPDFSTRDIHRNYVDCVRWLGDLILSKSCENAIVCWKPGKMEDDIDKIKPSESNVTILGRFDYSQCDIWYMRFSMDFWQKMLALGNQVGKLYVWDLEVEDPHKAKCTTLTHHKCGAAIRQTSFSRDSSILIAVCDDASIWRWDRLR
method: Temperature shift assay (non-BRD reader domains)
Assay type: binding
details: 10µM compound
endpoint: Tm (C) 10µM, temperature shift (Kelvin)
I only need the number, in Kelvin, no unit after it.

// Tm (C) 10µM, temperature shift lookup, key: Cc1nnc2c3ccccc3c(N[C@@H](C)[C@H](c3ccccc3)N(C)C)nn12 [L-Moses]
-0.3

What measured Tm (C) 10µM, temperature shift goes with CN(C)CCCOc1ccc(-c2cc(NCCCn3cccn3)nc(S(C)(=O)=O)n2)cc1 [TP-238] ?
-0.3

Could you share which Tm (C) 10µM, temperature shift value was measured for Cc1c(NC(=O)c2cc(C(N)=O)nc3cc(F)ccc23)c(C(F)(F)F)nn1Cc1ccc(C#N)cc1 [BAY-876] ?
-0.7

Next up:
I am curious: what Tm (C) 10µM, temperature shift value has been reported for CCC(=O)N1CCOc2c(cc(-c3ccc(OC)c(OC)c3)cc2OCC2CCCN(C)C2)C1 (stereo not shown) [I-CBP112] ?
-0.5

###

assayed_system: SETD8 (Homo sapiens, UniProt Q9NQR1)
Construct: purchased DiscoverX BROMOscan (bromodomains); SGC in-house methyltransferase panel
Sequence (Q9NQR1 whole entry): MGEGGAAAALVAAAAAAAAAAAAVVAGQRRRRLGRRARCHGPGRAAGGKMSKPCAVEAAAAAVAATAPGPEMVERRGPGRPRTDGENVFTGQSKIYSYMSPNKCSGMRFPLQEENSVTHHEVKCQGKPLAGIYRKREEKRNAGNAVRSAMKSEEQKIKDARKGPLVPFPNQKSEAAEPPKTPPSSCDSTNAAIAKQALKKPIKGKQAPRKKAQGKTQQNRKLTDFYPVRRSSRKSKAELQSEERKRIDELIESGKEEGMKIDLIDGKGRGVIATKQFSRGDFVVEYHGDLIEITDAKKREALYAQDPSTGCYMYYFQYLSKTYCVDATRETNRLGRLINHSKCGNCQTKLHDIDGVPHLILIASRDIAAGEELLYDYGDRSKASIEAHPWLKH
method: Methyl transferase scintillation proximity assay
Assay type: biochemical
details: average of two measurements, read-out: MTases Inhibition (%)
endpoint: inhibition at 10 µM (%)
Please give a number only; it is taken to be in %.

Which inhibition at 10 µM value is on record for "CN(C)CCCOc1ccc(-c2cc(NCCCn3cccn3)nc(S(C)(=O)=O)n2)cc1" ?
-6

Continuing:
Returns the measured inhibition at 10 µM for the input compound. Input: "COc1cc(Cl)c(C(=O)N[C@@H](CN[C@H]2CC[C@@H](N)CC2)Cc2ccc(C#N)cc2)cc1-c1ccc(CN[C@H](C)c2ccc(C)cc2)o1"
2

Looking for the measured inhibition at 10 µM of "Cc1c(NC(=O)c2cc(C(N)=O)nc3cc(F)ccc23)c(C(F)(F)F)nn1Cc1ccc(C#N)cc1" , can you help?
0

I am curious: what inhibition at 10 µM value has been reported for "Cc1nnc2c3ccccc3c(N[C@@H](C)[C@H](c3ccccc3)N(C)C)nn12" ?
-8

Item under review: "CN1C[C@H](Nc2cnn(C)c(=O)c2Br)C[C@H](c2ccccc2)C1" . Reported inhibition at 10 µM?
10

Entry under review: "CO[C@H]1CNC[C@@H](OCC2CCC(F)(F)CC2)[C@@H]1Nc1ncc(-c2cncc(C)c2)c2cc(C)c(=O)[nH]c12" . Reported inhibition at 10 µM?
-7

# inhibition at 10 µM lookup, item "Cc1c(NC(=O)c2cc(C(N)=O)nc3cc(F)ccc23)c(C(F)(F)F)nn1Cc1ccc(C(C)(C)C)cc1"
-3

###

Overview of recorded inhibition at 10 µM for various compounds
assayed_system: PRDM9 (Homo sapiens, UniProt Q9NQV7)
Construct: purchased DiscoverX BROMOscan (bromodomains); SGC in-house methyltransferase panel
Sequence (Q9NQV7 whole entry): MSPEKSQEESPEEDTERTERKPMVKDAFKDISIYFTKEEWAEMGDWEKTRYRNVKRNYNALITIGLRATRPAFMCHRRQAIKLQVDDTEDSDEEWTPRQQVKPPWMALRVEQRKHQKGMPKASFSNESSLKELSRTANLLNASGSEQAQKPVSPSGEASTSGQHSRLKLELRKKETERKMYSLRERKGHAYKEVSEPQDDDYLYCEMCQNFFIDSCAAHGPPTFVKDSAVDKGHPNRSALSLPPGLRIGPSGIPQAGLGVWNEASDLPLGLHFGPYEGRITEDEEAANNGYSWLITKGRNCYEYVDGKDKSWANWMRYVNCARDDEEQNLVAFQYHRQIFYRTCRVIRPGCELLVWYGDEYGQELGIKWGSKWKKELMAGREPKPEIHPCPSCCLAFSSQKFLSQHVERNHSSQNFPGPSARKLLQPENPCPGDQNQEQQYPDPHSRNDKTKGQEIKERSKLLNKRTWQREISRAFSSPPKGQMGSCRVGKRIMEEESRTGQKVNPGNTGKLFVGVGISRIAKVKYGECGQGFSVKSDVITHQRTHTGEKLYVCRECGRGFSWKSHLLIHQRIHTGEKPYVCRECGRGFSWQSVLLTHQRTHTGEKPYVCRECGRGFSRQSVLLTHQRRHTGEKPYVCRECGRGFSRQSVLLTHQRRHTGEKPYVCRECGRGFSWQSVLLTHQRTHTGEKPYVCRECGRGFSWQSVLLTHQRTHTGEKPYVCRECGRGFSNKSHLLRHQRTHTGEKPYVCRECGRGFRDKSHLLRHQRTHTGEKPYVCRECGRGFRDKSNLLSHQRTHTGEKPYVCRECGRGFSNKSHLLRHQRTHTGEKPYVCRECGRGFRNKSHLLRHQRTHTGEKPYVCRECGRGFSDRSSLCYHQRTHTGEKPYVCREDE
method: Methyl transferase scintillation proximity assay
Format: biochemical
details: average of two measurements, read-out: MTases Inhibition (%)
Method: Assays measuring lysine and arginine methyl transferase activity have been described in Scheer et al.. A radioactivity-based scintillation proximity assay was used to monitor incorporation of a tritium-labeled methyl group into the biotinylated substrate of the methyl transferase. A 10-μl reaction containing ^3H-SAM and substrate at concentrations close to the apparent Km values for each enzyme was prepared. […] The counts per minute (CPM) was measured on a TopCount plate reader. […]
Express it in %; write the number only.

What does the record list as inhibition at 10 µM for "CN(C)CCCOc1ccc(-c2cc(NCCCn3cccn3)nc(S(C)(=O)=O)n2)cc1" ?
-1

Endpoint output: inhibition at 10 µM of "Cc1c(NC(=O)c2cc(C(N)=O)nc3cc(F)ccc23)c(C(F)(F)F)nn1Cc1ccc(C#N)cc1" . Value?
0

Read the next record carefully.
For "COc1cc(Cl)c(C(=O)N[C@@H](CN[C@H]2CC[C@@H](N)CC2)Cc2ccc(C#N)cc2)cc1-c1ccc(CN[C@H](C)c2ccc(C)cc2)o1" , what is its reported inhibition at 10 µM?
10

###

Measured pKd, listed per entry for reference.
assayed_system: PBRM1(5) (Homo sapiens)
Sequence (Q86U86 653-763 limits assumed): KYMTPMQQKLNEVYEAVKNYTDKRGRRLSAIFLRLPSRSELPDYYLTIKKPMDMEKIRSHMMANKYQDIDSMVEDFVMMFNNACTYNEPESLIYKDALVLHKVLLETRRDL
method: BROMOscan ligand-binding assay
details: PBRM1(5)
# pKd = -log10(concentration in molar units)

Give the measured pKd of "COc1cc(C#N)ccc1S(=O)(=O)Nc1ccc2c(c1)cc(C)c(=O)n2C" .
4.96

Okay, now this molecule:
Please look up its pKd: "COc1cc2c(cc1NS(=O)(=O)c1ccc(Br)cc1C)n(C)c(=O)n2C"
5.35

###

assayed_system: TRIM24 (Homo sapiens, UniProt O15164)
Sequence (O15164 899-1004 limits assumed): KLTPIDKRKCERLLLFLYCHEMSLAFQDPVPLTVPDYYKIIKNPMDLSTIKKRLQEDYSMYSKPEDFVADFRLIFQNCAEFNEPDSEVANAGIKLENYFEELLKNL
method: BROMOscan ligand-binding assay
details: KD, BROMOscan Gene Symbol TRIM24(Bromo.)
endpoint: Kd (µM)
The response must be a number in µM with no trailing unit.

What does the data say about its Kd? Entry: "CCCOc1ccn2c(C(C)=O)cc(-c3ccccc3S(C)(=O)=O)c2c1"
24

###

assayed_system: TAF1(2) (Homo sapiens)
Sequence (P21675 1519-1628 limits assumed): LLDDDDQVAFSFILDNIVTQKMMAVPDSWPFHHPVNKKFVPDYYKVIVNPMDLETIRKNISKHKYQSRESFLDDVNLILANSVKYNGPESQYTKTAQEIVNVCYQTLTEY
method: BROMOscan ligand-binding assay
details: TAF1(2)
The reader will find reported Kd values listed item by item below.
Return type: number; implicit unit µM.

Given the entry COc1cc2c(cc1NS(=O)(=O)c1ccc(Br)cc1C)n(C)c(=O)n2C [OF-1] , report its measured Kd.
4.7

// next entry
Which measured Kd value corresponds to COc1cc(C#N)ccc1S(=O)(=O)Nc1ccc2c(c1)cc(C)c(=O)n2C [NI 57] ?
4.9

###

assayed_system: TDRD3 (Homo sapiens, UniProt Q9H7E2)
Sequence (Q9H7E2 555-615 limits assumed, species assumed): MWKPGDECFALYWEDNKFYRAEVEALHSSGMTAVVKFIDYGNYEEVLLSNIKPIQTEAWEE
method: Temperature shift assay (non-BRD reader domains)
Assay type: binding
details: 10µM compound
endpoint: Tm (C) 10µM, temperature shift (Kelvin)
Expressed in Kelvin, but write only the number.

Below, each entry is followed by its recorded Tm (C) 10µM, temperature shift result.
Dear colleague, I am looking for the recorded Tm (C) 10µM, temperature shift of the following compound: CCC(=O)N1CCOc2c(cc(-c3ccc(OC)c(OC)c3)cc2OCC2CCCN(C)C2)C1 (stereo not drawn) [I-CBP112]
-0.6

Recorded Tm (C) 10µM, temperature shift of Cc1cc2c(cc1N1C(=O)c3cccc4c(CCCO)ccc(c34)C1=O)n(C)c(=O)n2C [BAY-299] , please.
-1.4

// query Tm (C) 10µM, temperature shift value for entry CN1C[C@H](Nc2cnn(C)c(=O)c2Br)C[C@H](c2ccccc2)C1 [GSK4027]
-0.6

What value of Tm (C) 10µM, temperature shift has been reported for the following compound? Cc1c(NC(=O)c2cc(C(N)=O)nc3cc(F)ccc23)c(C(F)(F)F)nn1Cc1ccc(C(C)(C)C)cc1 [BAY-588]
-5.3

Given COc1cc(Cl)c(C(=O)N[C@@H](CN[C@H]2CC[C@@H](N)CC2)Cc2ccc(C#N)cc2)cc1-c1ccc(CN[C@H](C)c2ccc(C)cc2)o1 [BAY-850] , state its recorded Tm (C) 10µM, temperature shift.
-1.8

***
# input compound: Cc1c(NC(=O)c2cc(C(N)=O)nc3cc(F)ccc23)c(C(F)(F)F)nn1Cc1ccc(C#N)cc1 [BAY-876] ; wanted: its Tm (C) 10µM, temperature shift
-1.0

Reported Tm (C) 10µM, temperature shift for CO[C@H]1CNC[C@@H](OCC2CCC(F)(F)CC2)[C@@H]1Nc1ncc(-c2cncc(C)c2)c2cc(C)c(=O)[nH]c12 [GSK8814] : what is it?
-0.6

Which Tm (C) 10µM, temperature shift is reported for this compound? CN(C)CCCOc1ccc(-c2cc(NCCCn3cccn3)nc(S(C)(=O)=O)n2)cc1 [TP-238]
-0.7

Which Tm (C) 10µM, temperature shift value is on record for Cc1nnc2c3ccccc3c(N[C@@H](C)[C@H](c3ccccc3)N(C)C)nn12 [L-Moses] ?
-0.9
